Where do the numbers come from? From paper PMC10397247.

Overview of recorded interaction score for various binders
Biological target: T1, 4H496-bA
T1 chain: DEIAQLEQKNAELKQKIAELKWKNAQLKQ
Test: two-hybrid library CCNG1;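 also: natural log of median RNA to DNA barcode read ratio; higher means stronger binding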

| binder | interaction score |
| --- | --- |
| DENQELKKEIEELKRENWELKKKIQELER [4H1629-bH] | -2.88 |
| DKNAQLKQEIAELEQKIAELKWKNAQLKQ [4H3632-bA] | 0.728 |
| DEIAQLEQKNAELKQKIAELKWKNAQLKQ [4H496-bA] | -0.521 |
| DENAQLEQKIAELKQEIAELEWENAQLEQ [4H1347-bA] | -0.596 |
| DKIAQLKQEIAELEQKNAELKWENAQLEQ [4H2619-bA] | -0.573 |
| DKIAQLKQKNAELKQKNAELKWKIAQLKQ [4H3070-bA] | -1.47 |
| DEIAQLEQENAELEQENAELEWEIAQLEQ [4H145-bA] | -1.06 |
| DKIAQLKQENAELEQEIAELEWENAQLEQ [4H2691-bA] | -3.04 |
| DEIAQLEQKIAELKQENAELEWKIAQLKQ [4H342-bA] | 2.13 |
